All figures here come from PubChem BioAssay AID1996.

Cond: buffer; pH 7.4; 200.0 µM
Measured Attribute: log10 solubility kinetic (log10 of the value in µg/mL)
Use the decimal logarithm of solubility kinetic (µg/mL).

Sample answers from the record:
Compound: COc1cc(C(=O)Nc2ccc(C(=O)c3cccs3)cc2)cc(OC)c1OC
log10 solubility kinetic: 0.91
//
Compound: Cc1cccc(C)c1OCC1CNC(=O)O1 (stereo not drawn)
log10 solubility kinetic: 1.39
//
Compound: COc1ccc(Cl)cc1NC(=O)Cn1c(=O)oc2ccccc21
log10 solubility kinetic: 0.08
//
Compound: O=C(Nc1ccc(NC(=O)C2CC2)nc1)c1ccccc1F
log10 solubility kinetic: 0.91

// sample `CSc1ccccc1NC(=O)COC(=O)c1ccccc1O` , its log10 solubility kinetic was 0.30
